test: MTT cytotoxicity assay, MRC-5 normal cells; conditions: human
Reported property: pIC50
Just the number, please; pIC50 means minus log10 of the concentration in mol/L.

What measured pIC50 goes with CC1=C(CC/C(C)=C/CC/C(C=O)=C\C[C@@H](O)C2=CC(=O)OC2O)C(C)(C)CCC1 (stereo partly shown) [Compound 14, seco-manoalide] ?
4.76

----------
system: MDA-MB-231 (hormone independent breast cancer); assay: MTT cytotoxicity assay, MDA-MB-231; conditions: Homo sapiens, MDA-MB-231, read-out: Cytotoxicity IC50, MDA-MB-231, MDA-MB-231 cell line, MTT assay
We begin with a simple list: items and their reported IC50.
Just the number please, in µM, no unit attached.

[
  {
    "Molecule": "CC1=C(CC/C(C)=C/CC/C(=C/CC2OC(=O)C=C2CO)CO)C(C)(C)CCC1 (stereo not drawn) [Compound 13, (6Z)-neomanoalide]",
    "IC50 (µM)": 92
  },
  {
    "Molecule": "COC1OC(=O)C=C1C(O)CC=C(C=O)CCC=C(C)CCC1=C(C)CCCC1(C)C (stereo not drawn) [Compound 3, seco-manoalide-25-methyl ether]",
    "IC50 (µM)": 40.1
  }
]

Turning now to a further record.
What measured IC50 goes with CC1(C)CCC[C@@]2(C)C1CC[C@]1(C)C2C[C@@H](O)[C@]2(C)C3COC(=O)C3=CCC12 (stereo partly drawn) [Compound 18, 12-epi-O-deacetyl-19-deoxyscalarin] ?
5.96

Provenance of the data: paper PMC6316393
